# Test Target: Histamine H3 receptor (Homo sapiens)
# Sequence (Q9Y5N1 whole entry): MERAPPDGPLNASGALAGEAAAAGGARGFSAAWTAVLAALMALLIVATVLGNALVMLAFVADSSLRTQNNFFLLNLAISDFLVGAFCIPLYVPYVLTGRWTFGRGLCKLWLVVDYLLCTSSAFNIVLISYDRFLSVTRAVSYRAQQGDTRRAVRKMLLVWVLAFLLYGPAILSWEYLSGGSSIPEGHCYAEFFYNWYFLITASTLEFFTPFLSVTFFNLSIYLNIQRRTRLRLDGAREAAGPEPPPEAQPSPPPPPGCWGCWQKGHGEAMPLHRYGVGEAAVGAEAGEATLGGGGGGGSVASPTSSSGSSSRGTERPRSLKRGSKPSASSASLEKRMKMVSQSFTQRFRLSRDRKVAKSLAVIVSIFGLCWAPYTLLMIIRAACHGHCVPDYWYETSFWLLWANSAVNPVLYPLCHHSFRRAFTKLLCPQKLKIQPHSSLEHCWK
# Assay Notes: Antagonist activity at human histamine H3 receptor stably expressed in HEK293 cells assessed as cAMP accumulation incubated for 60 mins by Eu-cAMP tracer based TR-FRET assay
Reported Property: pIC50
pIC50 field: float, defined as -log10 of concentration (mol/L).

Q: Bench note: what pIC50 did CCN(CC)CCCOc1ccc(-n2ccc(=O)c(O)c2C)cc1 show?
Result: 7.89

###

# Test Target: Acetylcholinesterase (Mus musculus, UniProt P21836)
# Sequence (P21836 whole entry): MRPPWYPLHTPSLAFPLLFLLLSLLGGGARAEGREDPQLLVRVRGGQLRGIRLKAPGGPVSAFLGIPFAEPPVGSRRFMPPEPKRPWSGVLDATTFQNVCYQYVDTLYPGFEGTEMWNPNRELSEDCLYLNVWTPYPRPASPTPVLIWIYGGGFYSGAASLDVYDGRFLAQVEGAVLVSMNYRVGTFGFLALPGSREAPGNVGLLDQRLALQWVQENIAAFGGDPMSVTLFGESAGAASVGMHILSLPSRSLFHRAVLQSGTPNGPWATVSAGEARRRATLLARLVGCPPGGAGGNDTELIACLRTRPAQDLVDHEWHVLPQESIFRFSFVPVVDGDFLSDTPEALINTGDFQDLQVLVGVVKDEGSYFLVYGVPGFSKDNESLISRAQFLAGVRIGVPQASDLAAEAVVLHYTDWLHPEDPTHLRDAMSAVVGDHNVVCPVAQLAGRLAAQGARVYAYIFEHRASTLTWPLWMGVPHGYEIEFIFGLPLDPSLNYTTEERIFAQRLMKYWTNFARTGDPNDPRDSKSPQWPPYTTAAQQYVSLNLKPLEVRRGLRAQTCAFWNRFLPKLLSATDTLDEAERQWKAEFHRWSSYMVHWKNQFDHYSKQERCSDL
Reported Property: IC50

Q: Bench note: what IC50 did CNCCC(Oc1ccc(C(F)(F)F)cc1)c1ccccc1 (stereo unspecified) show?
Result: > 10 µM
